# Tested on: HCT-15 colon
# experiment_summary: NCI-60 one-dose screen, 48 h
# run_conditions: 10 µM unless noted
Compounds without any hit were thinned out: in the full panel of roughly 83,000, 20% have a hit. Active and inactive are the calls of the source. How the source made its calls: active means growth percent below 10; inactive means the rest.
Your response should consist of one outcome taken from active, inactive

Name the outcome recorded for COC1=CC(=O)C[C@@H](C)[C@]12Oc1c(Cl)c(OC)cc(OC)c1C2=O in the assay. inactive

Name the outcome recorded for N#Cc1c(-c2ccccn2)[nH]c(=S)[nH]c1=O in the assay. inactive

Name the outcome recorded for C[C@@H]1N=C(c2ccc3ccccc3n2)Nc2nc3ccccn3c2C1=O in the assay. inactive

Name the outcome recorded for COc1ccc(-c2nc3c(c(=O)n2C(C)=O)C(c2ccc(Cl)cc2)c2sc4c(Cl)cccc4c2O3)cc1 (stereo unspecified) in the assay. active

Name the outcome recorded for Cn1cc(-c2csc(-c3ccccc3)n2)c2cccnc21 in the assay. active

Name the outcome recorded for COc1ccc(N=C(c2ccccc2)C2C(=O)c3ccccc3C2=O)cc1 in the assay. inactive

Name the outcome recorded for O=C(NCCCNc1cc(-c2cn(-c3ccccc3)nc2-c2cccc(O)c2)ccn1)c1cccc(O)c1 in the assay. inactive

Name the outcome recorded for Cc1ccc(-c2cc(-c3cccnc3)[nH]c(=O)c2C#N)cc1 in the assay. inactive

Name the outcome recorded for COc1ccc2c(c1)O/C(=C\c1cccc(OCC(=O)Nc3nc(C)c(C)s3)c1)C2=O in the assay. inactive

Name the outcome recorded for c1ccc(Nc2nc(-c3ccccn3)cs2)nc1 in the assay. inactive

Name the outcome recorded for Clc1cccc(Cl)c1C(Nc1nc2ccccc2s1)Nc1nc2ccccc2s1 in the assay. inactive

Name the outcome recorded for NCCCNc1nc2ccccc2c2c(=O)c3cccc(Cl)c3sc12 in the assay. active

Name the outcome recorded for Cc1ccccc1NC(=O)N/C(N)=N/c1nc(-c2cccc([N+](=O)[O-])c2)cs1 in the assay. inactive

Name the outcome recorded for COc1ccc(NC(=O)CSc2nc(C)c(C(C)=O)n2-c2ccc(Cl)cc2)cc1 in the assay. inactive

Name the outcome recorded for CCCc1cc2c(=O)c(C(=O)OC)c[nH]c2cc1N(CC)CC in the assay. inactive

Name the outcome recorded for O=C1CCC2=C3C4CCCCC4C(=O)C4CCCC(OC2C1)C34 (stereo unspecified) in the assay. active

Name the outcome recorded for COc1cccc(-c2nn(-c3ccccc3)cc2-c2ccnc(NCCCNC(=O)c3ccccc3)c2)c1 in the assay. inactive

Name the outcome recorded for O=C(O)CN1C(=O)CCC1=O in the assay. inactive

Name the outcome recorded for O=C(/C=C/c1ccco1)c1ccc(Nc2nc(Nc3ccc(F)cc3)nc(Nc3ccc(Cl)cc3)n2)cc1 in the assay. inactive

Name the outcome recorded for N#Cc1c(N)nc2c(C#N)c(NC(=O)c3ccccc3)nn2c1-c1ccccc1 in the assay. inactive

Name the outcome recorded for CNC(=O)CCN1CCN(CC/C=C2\c3ccccc3Sc3ccc(Cl)cc32)CC1 in the assay. inactive
